Data origin: PubChem BioAssay

Assay: DUSP6 inhibitors restoring Erk phosphorylation by chemical complementation, primary imaging in DUSP6-transfected HeLa (AID 609)
Conditions: HeLa MKP-3 transfected, phospho-Erk imaging KS statistic; measured here: cell density z-score; at 10 µM; cells stimulated with TPA for 15 min
The entries below are paired with their reported z-score.
ASSAY ENDPOINT: z-score

[[record]]
molecule = "C#CCN(C)Cc1ccccc1"
assay_endpoint = "z-score"
value_reported = 1.46

[[record]]
molecule = "Cc1cccc(N)c1SC1CCCCC1O (configuration not stated)"
assay_endpoint = "z-score"
value_reported = 0.781

[[record]]
molecule = "O=C1C(=O)N(CCN2CCOCC2)C(c2ccccn2)/C1=C(/O)c1ccc(F)cc1 (configuration not stated)"
assay_endpoint = "z-score"
value_reported = -0.169

[[record]]
molecule = "COc1ccc(OC)c(C2/C(=C(\\O)c3ccc4c(c3)OCCO4)C(=O)C(=O)N2CCCN(C)C)c1 (configuration not stated)"
assay_endpoint = "z-score"
value_reported = 0.935

[[record]]
molecule = "O=C(NC1CCS(=O)(=O)C1)c1c(NC(=O)C2COc3ccccc3O2)sc2c1CCCC2 (configuration not stated)"
assay_endpoint = "z-score"
value_reported = 0.65

[[record]]
molecule = "CCCOc1ccc(C(C)=O)cc1CSCCC#N"
assay_endpoint = "z-score"
value_reported = -0.222

[[record]]
molecule = "COc1ccc(C(CC(=O)N2CCOCC2)C(C)C)cc1 (configuration not stated)"
assay_endpoint = "z-score"
value_reported = -1.63


----------
The entries below are paired with their reported z-score.
Assay: DUSP6 inhibitors restoring Erk phosphorylation by chemical complementation, primary imaging in DUSP6-transfected HeLa (AID 609)
Details: HeLa MKP-3 transfected, phospho-Erk imaging KS statistic; measured here: nuclear pErk red intensity z-score; at 10 µM; stronger effect = higher value; cells stimulated with TPA for 15 min
ASSAY ENDPOINT: z-score

[[record]]
smiles_input = "CCOC(=O)c1[nH]c2cc3c(cc2c1NC(=O)CN1CCC2(CC1)OCCO2)OCO3"
assay_endpoint = "z-score"
value_reported = -0.82

[[record]]
smiles_input = "CNC[C@H](O)c1cccc(O)c1"
assay_endpoint = "z-score"
value_reported = -0.803

[[record]]
smiles_input = "CC(=O)OC12CC3CC(C1)C(=NO)C(C3)C2"
assay_endpoint = "z-score"
value_reported = -0.795


----------
The entries below are paired with their reported inhibition.
Molecular target: Dual specificity protein phosphatase 6 (Homo sapiens) (UniProt Q16828)
Sequence (Q16828 whole entry, looked up): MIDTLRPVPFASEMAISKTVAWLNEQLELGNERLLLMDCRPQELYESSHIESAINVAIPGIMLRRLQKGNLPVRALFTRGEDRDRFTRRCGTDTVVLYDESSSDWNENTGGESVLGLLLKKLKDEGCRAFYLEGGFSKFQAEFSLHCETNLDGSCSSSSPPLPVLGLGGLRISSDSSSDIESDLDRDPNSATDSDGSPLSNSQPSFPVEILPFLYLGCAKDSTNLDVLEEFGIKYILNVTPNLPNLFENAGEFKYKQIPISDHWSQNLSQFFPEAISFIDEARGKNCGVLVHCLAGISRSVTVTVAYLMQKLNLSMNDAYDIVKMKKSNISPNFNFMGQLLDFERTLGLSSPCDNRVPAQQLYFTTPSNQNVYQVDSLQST
Assay: DUSP6 inhibitors restoring Erk phosphorylation by chemical complementation, primary imaging in DUSP6-transfected HeLa (AID 609);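 for inhibition: phospho-Erk level distribution per well compared with pooled transfected vehicle control wells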
Details: HeLa MKP-3 transfected, phospho-Erk imaging KS statistic; at 10 µM; stronger effect = higher value; cells stimulated with TPA for 15 min
The source made the active and inactive calls.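 How the source made its calls: active means compounds giving at least 50% inhibition in the cell-based MKP-3 phosphatase rescue imaging test; inactive means the rest.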
ASSAY ENDPOINT: inhibition

[[record]]
compound = "COc1ccc(N2C(=O)CN=C2Nc2nc(C)cc(C)n2)cc1"
assay_endpoint = "inhibition"
value_reported = "1.98% (inactive)"

[[record]]
compound = "Fc1ccc(OCCOCCNCC2CCCO2)cc1 (centres undefined)"
assay_endpoint = "inhibition"
value_reported = "15.1% (inactive)"

[[record]]
compound = "CCCOC(=O)C1[C@H]2C(=O)N(Cc3ccco3)C[C@]23C=C[C@H]1O3 (some centres undefined)"
assay_endpoint = "inhibition"
value_reported = "-7.01% (inactive)"

[[record]]
compound = "Cc1cc(C)c2c(N)c(C(=O)c3ccccc3)oc2n1"
assay_endpoint = "inhibition"
value_reported = "-3.95% (inactive)"

[[record]]
compound = "Cn1c(Cl)cnc1C1CC(=O)c2cc(Cl)ccc2O1 (centres undefined)"
assay_endpoint = "inhibition"
value_reported = "15.9% (inactive)"

[[record]]
compound = "CCCCOc1ccc(C(=O)CCN2CCCCC2)cc1"
assay_endpoint = "inhibition"
value_reported = "7.39% (inactive)"

[[record]]
compound = "CN1CCN(CCC(=O)N2c3ccccc3Sc3ccc(Cl)cc32)CC1"
assay_endpoint = "inhibition"
value_reported = "0.671% (inactive)"

[[record]]
compound = "CC(COc1ccccc1)NC(C)C(O)c1ccc(O)cc1 (centres undefined)"
assay_endpoint = "inhibition"
value_reported = "-12.3% (inactive)"

[[record]]
compound = "Cc1ccc(-n2c(N)c(C(N)=O)sc2=S)cc1"
assay_endpoint = "inhibition"
value_reported = "-1.98% (inactive)"


----------
The entries below are paired with their reported z-score.
Assay: DUSP6 inhibitors restoring Erk phosphorylation by chemical complementation, primary imaging in DUSP6-transfected HeLa (AID 609)
Conditions: HeLa MKP-3 transfected, phospho-Erk imaging KS statistic; measured here: cell density z-score; at 10 µM; cells stimulated with TPA for 15 min
ASSAY ENDPOINT: z-score

[[record]]
smiles_input = "CCOC(=O)c1c(CNCCN(CC)CC)n(C)c2cc(Br)c(OC)cc12"
assay_endpoint = "z-score"
value_reported = -0.115

[[record]]
smiles_input = "CN(C(=O)C(Cl)Cl)c1ccc(OC(=O)c2ccco2)cc1"
assay_endpoint = "z-score"
value_reported = 0.253

[[record]]
smiles_input = "N#CCCn1cnc2c(=S)nc[nH]c21"
assay_endpoint = "z-score"
value_reported = 0.101

[[record]]
smiles_input = "COC(=O)c1ccc(Oc2nc3ccccc3n3c(C)nnc23)cc1"
assay_endpoint = "z-score"
value_reported = 0.524

[[record]]
smiles_input = "O=C(Nc1ccccc1C(=O)NCCCn1ccnc1)c1ccccc1"
assay_endpoint = "z-score"
value_reported = 0.245

[[record]]
smiles_input = "CCOc1ccc(C2=Nn3c(nnc3-c3cccnc3)SC2)cc1"
assay_endpoint = "z-score"
value_reported = -0.574

[[record]]
smiles_input = "Cc1c(NS(=O)(=O)c2cccc3nsnc23)c(=O)n(-c2ccccc2)n1C"
assay_endpoint = "z-score"
value_reported = 0.537

[[record]]
smiles_input = "CCOC(=O)c1n[nH]c2ccccc12"
assay_endpoint = "z-score"
value_reported = 0.791

[[record]]
smiles_input = "CCOC(=O)c1nc2nc(C)c(Cl)c(=O)n2[nH]1"
assay_endpoint = "z-score"
value_reported = 0.438

[[record]]
smiles_input = "COc1ccc(Nc2oc(-c3cccs3)nc2C#N)cc1"
assay_endpoint = "z-score"
value_reported = 1.97


----------
Experiment: DUSP6 inhibitors restoring Erk phosphorylation by chemical complementation, primary imaging in DUSP6-transfected HeLa (AID 609)
Conditions: HeLa MKP-3 transfected, phospho-Erk imaging KS statistic; measured here: cell density z-score; at 10 µM; cells stimulated with TPA for 15 min
ASSAY ENDPOINT: z-score

[[record]]
compound = "Nc1nc(NC(=O)c2cccs2)nn1-c1ccccc1"
value_reported = -2.6

[[record]]
compound = "N=c1c(C(=O)NCc2ccccc2)cc2c(=O)n3ccccc3nc2n1Cc1ccco1"
value_reported = 0.674

[[record]]
compound = "CC1(C)C/C(=C(/C#N)C(N)=O)CCO1"
value_reported = 0.299

[[record]]
compound = "CC(C)(C)NCC(O)COc1cccc2c1C[C@H](O)[C@H](O)C2 (stereo not given in full)"
value_reported = 0.108

[[record]]
compound = "CCOC(=O)CCc1c(C)c(C#N)c2nc3ccccc3n2c1-n1ccnc1C"
value_reported = -0.341


----------
Experiment: inhibitors of Chlamydomonas gravitaxis, primary screen, whole organism, Chlamydomonas reinhardtii, WT vs cilia-less mutant, absorbance, 96-well (AID 463189);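 note: 0% = wild type cc124 cells in DMSO and 100% = ciliumless bld1 mutant cells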
Settings: OD600 absorbance, 2 days, at 10 µM, stronger effect = higher value
Label YES when inhibition is at or above 10%; anything below gets NO.

[[record]]
molecule = "C=CCOC(=O)C1=C(C)NC(SCC(=O)N(CC)CC)=C(C#N)C1c1ccco1 (configuration not stated)"
assigned_class = "NO"

[[record]]
molecule = "CC1=C(c2ccc(Cl)cc2)[N+](=O)C(C)(C)N1[O-]"
assigned_class = "YES"

[[record]]
molecule = "CCOC(=O)C(C#N)C(Cc1ccccc1)c1ccco1 (configuration not stated)"
assigned_class = "NO"

[[record]]
molecule = "CCC1(C)Cc2ccccc2-c2nc(NCCO)n(-c3ccccc3)c(=O)c21 (configuration not stated)"
assigned_class = "NO"

[[record]]
molecule = "CCn1cc(C(=O)NCCc2ccccc2)c(=O)c2cc(F)c(N3CCN(C)CC3)cc21"
assigned_class = "YES"

[[record]]
molecule = "Nc1nnnn1/N=C/c1ccccn1"
assigned_class = "YES"

[[record]]
molecule = "CCOC(=O)CSC1=C(C#N)C(c2ccc(C)cc2)C(C(=O)OC)C(=O)N1 (configuration not stated)"
assigned_class = "NO"

[[record]]
molecule = "CN(C)CCOC(=O)C(c1ccccc1)C1(O)CCCC1 (configuration not stated)"
assigned_class = "YES"

[[record]]
molecule = "COc1ccc(-c2ncncc2-c2csc(C)n2)c(O)c1"
assigned_class = "NO"

[[record]]
molecule = "CCN1CCc2c(C#N)c(N3CCCCC3)nc(NCc3ccccc3)c2C1"
assigned_class = "YES"

[[record]]
molecule = "CC(C)c1cc(NCCN2CCOCC2)n2c(nc3ccccc32)c1C#N"
assigned_class = "NO"

[[record]]
molecule = "COc1ccc(-c2oc3ncn4nc(Cc5ccccc5)nc4c3c2-c2ccc(OC)cc2)cc1"
assigned_class = "NO"

